Experiment: PK Phase (Group 2): plasma concentrations and pharmacokinetics of Compound 18 and its metabolite Compound 4 after once daily ocular instillation of Compound 18 nanosuspension for 7 days
Type: in vivo, New Zealand white rabbits
Details: male, New Zealand white, rabbit, plasma, topical or ocular, 0.8 mg/kg, plasma, Day 1, Compound 18 0.8 mg/kg ocular instillation; animal 207665
readout.label: Tmax (min)
Express it in min; write the number only.

| molecule | reading.unit | Tmax |
| --- | --- | --- |
| CCCc1nn(C)c2c(=O)[nH]c(-c3cc(S(=O)(=O)N4CC(CCCO[N+](=O)[O-])C4)ccc3OCC)nc12 [Compound 18] | min | 30 |

// below: Tmax requested for another molecule
Short answer for CCCc1nn(C)c2c(=O)[nH]c(-c3cc(S(=O)(=O)N4CC(CCCO)C4)ccc3OCC)nc12 [Compound 4] : Tmax was 30

---

Test: TD Phase (Groups 1 and 3): plasma and ocular tissue concentrations and pharmacokinetics of Compound 18 and its metabolite Compound 4 after once daily ocular instillation of Compound 18 nanosuspension for 7 days
Assay type: in vivo, New Zealand white rabbits
Conditions: male, New Zealand white, rabbit, topical or ocular, 0.8 mg/kg/day; vitreous humor, Day 7, from mean concentrations
readout.label: Tmax (min)
Write the answer as a number in min, unit excluded.

| compound | Tmax [min] |
| --- | --- |
| CCCc1nn(C)c2c(=O)[nH]c(-c3cc(S(=O)(=O)N4CC(CCCO[N+](=O)[O-])C4)ccc3OCC)nc12 [Compound 18] | 30 |

Then this compound:
The reported value for CCCc1nn(C)c2c(=O)[nH]c(-c3cc(S(=O)(=O)N4CC(CCCO)C4)ccc3OCC)nc12 [Compound 4] in terms of Tmax is 60

---

Experiment: TD Phase (Groups 1 and 3): plasma and ocular tissue concentrations and pharmacokinetics of Compound 18 and its metabolite Compound 4 after once daily ocular instillation of Compound 18 nanosuspension for 7 days
Format: in vivo, New Zealand white rabbits
Conditions: male, New Zealand white, rabbit, plasma, other: ocular instillation (eye drop), 0.8 mg/kg/day, TD Phase, Group 3, 2 h, Mean, BQL set to 0; read-out: Compound 18 Plasma Conc.
readout.label: concentration at 2 h (ng/mL)
The response must be a number in ng/mL with no trailing unit.

Lookup result for CCCc1nn(C)c2c(=O)[nH]c(-c3cc(S(=O)(=O)N4CC(CCCO[N+](=O)[O-])C4)ccc3OCC)nc12 ; measured concentration at 2 h: 0.0397

---

Experiment: TD Phase (Groups 1 and 3): plasma and ocular tissue concentrations and pharmacokinetics of Compound 18 and its metabolite Compound 4 after once daily ocular instillation of Compound 18 nanosuspension for 7 days
Format: in vivo, New Zealand white rabbits
Details: male, New Zealand white, rabbit, sclera/choroid, other: ocular instillation (eye drop), 0.798 mg/kg/day, TD Phase, Group 1, 1 h, Mean; read-out: Final Compound 18 Sclera/Choroid Conc.
readout.label: concentration at 1 h (ng/g)
Supply the numeric figure in ng/g, leaving out any unit text.

Looking up CCCc1nn(C)c2c(=O)[nH]c(-c3cc(S(=O)(=O)N4CC(CCCO[N+](=O)[O-])C4)ccc3OCC)nc12 , I found its concentration at 1 h recorded as 45.3

---

Assay: TD Phase (Groups 1 and 3): plasma and ocular tissue concentrations and pharmacokinetics of Compound 18 and its metabolite Compound 4 after once daily ocular instillation of Compound 18 nanosuspension for 7 days
Type: in vivo, New Zealand white rabbits
Settings: male, New Zealand white, rabbit, topical or ocular, 0.8 mg/kg/day; lens, Day 7, from mean concentrations
readout.label: Cmax (ng/g)
Quick reminder: number only, in ng/g, skip the unit.

| line.notation | numeric.readout |
| --- | --- |
| CCCc1nn(C)c2c(=O)[nH]c(-c3cc(S(=O)(=O)N4CC(CCCO)C4)ccc3OCC)nc12 | 18.1 |

API: the following record is the query input.
The compound identified as CCCc1nn(C)c2c(=O)[nH]c(-c3cc(S(=O)(=O)N4CC(CCCO[N+](=O)[O-])C4)ccc3OCC)nc12 registered its Cmax at 2.12

---

Experiment: TD Phase (Groups 1 and 3): plasma and ocular tissue concentrations and pharmacokinetics of Compound 18 and its metabolite Compound 4 after once daily ocular instillation of Compound 18 nanosuspension for 7 days
Format: in vivo, New Zealand white rabbits
Settings: male, New Zealand white, rabbit, trabecular meshwork, other: ocular instillation (eye drop), 0.798 mg/kg/day, TD Phase, Group 1, 1 h, Mean; read-out: Final Compound 18 Trabecular Meshwork Conc.
readout.label: concentration at 1 h (ng/g)
Output spec: scalar in ng/g, unitless text.

concentration at 1 h recorded for this compound, CCCc1nn(C)c2c(=O)[nH]c(-c3cc(S(=O)(=O)N4CC(CCCO[N+](=O)[O-])C4)ccc3OCC)nc12 , is 7.67

---

Assay: TD Phase (Groups 1 and 3): plasma and ocular tissue concentrations and pharmacokinetics of Compound 18 and its metabolite Compound 4 after once daily ocular instillation of Compound 18 nanosuspension for 7 days
Type: in vivo, New Zealand white rabbits
Conditions: male, New Zealand white, rabbit, topical or ocular; Trabecular Meshwork; Day 7; Compound 18 0.8 mg/kg ocular instillation once daily; Groups 1 and 3
readout.label: Cmax (ng/g)
Unit ng/g implied. Number only.

Noted for CCCc1nn(C)c2c(=O)[nH]c(-c3cc(S(=O)(=O)N4CC(CCCO)C4)ccc3OCC)nc12 : its Cmax reads 204

---

Test: TD Phase (Groups 1 and 3): plasma and ocular tissue concentrations and pharmacokinetics of Compound 18 and its metabolite Compound 4 after once daily ocular instillation of Compound 18 nanosuspension for 7 days
Type: in vivo, New Zealand white rabbits
Conditions: male, New Zealand white, rabbit, optic nerve, other: ocular instillation (eye drop), 0.798 mg/kg/day, TD Phase, Group 3, 8 h, Mean; read-out: Final Compound 18 Optic Nerve Conc.
readout.label: concentration at 8 h
Reply with the number, then its unit.

// concentration at 8 h lookup, compound = CCCc1nn(C)c2c(=O)[nH]c(-c3cc(S(=O)(=O)N4CC(CCCO[N+](=O)[O-])C4)ccc3OCC)nc12 , result: 61.6 ng/g

---

Assay: PK Phase (Group 2): plasma concentrations and pharmacokinetics of Compound 18 and its metabolite Compound 4 after once daily ocular instillation of Compound 18 nanosuspension for 7 days
Type: in vivo, New Zealand white rabbits
Details: male, New Zealand white, rabbit, plasma, topical or ocular, 0.8 mg/kg, plasma, Day 7, Compound 18 0.8 mg/kg ocular instillation; animal 207665
Quick reference for Tmax among some molecules
Supply the numeric figure in h, leaving out any unit text.

| line.notation | reading.unit | numeric.readout |
| --- | --- | --- |
| CCCc1nn(C)c2c(=O)[nH]c(-c3cc(S(=O)(=O)N4CC(CCCO)C4)ccc3OCC)nc12 | h | 0.5 |

Noted for CCCc1nn(C)c2c(=O)[nH]c(-c3cc(S(=O)(=O)N4CC(CCCO[N+](=O)[O-])C4)ccc3OCC)nc12 : its Tmax reads 8

---

Assay: TD Phase (Groups 1 and 3): plasma and ocular tissue concentrations and pharmacokinetics of Compound 18 and its metabolite Compound 4 after once daily ocular instillation of Compound 18 nanosuspension for 7 days
Assay type: in vivo, New Zealand white rabbits
Conditions: male, New Zealand white, rabbit, trabecular meshwork, other: ocular instillation, 0.8 mg/kg/day, TD Phase, Group 3, 8 h, Mean; read-out: Final Compound 18 Trabecular Meshwork Conc.
readout.label: concentration at 8 h (ng/g)
Please state the figure in ng/g; there is no need to write the unit.

Looking up CCCc1nn(C)c2c(=O)[nH]c(-c3cc(S(=O)(=O)N4CC(CCCO[N+](=O)[O-])C4)ccc3OCC)nc12 , I see its concentration at 8 h listed as 1.93

---

Assay: PK Phase (Group 2): plasma concentrations and pharmacokinetics of Compound 18 and its metabolite Compound 4 after once daily ocular instillation of Compound 18 nanosuspension for 7 days
Assay type: in vivo, New Zealand white rabbits
Conditions: male, New Zealand white, rabbit, plasma, other: ocular instillation (eye drop), 0.821 mg/kg/day, 2 h; Mean of 4 animals, BQL set to 0; read-out: Day 1 Compound 18 Plasma Concentration
readout.label: concentration at 2 h

So for CCCc1nn(C)c2c(=O)[nH]c(-c3cc(S(=O)(=O)N4CC(CCCO[N+](=O)[O-])C4)ccc3OCC)nc12 [Compound 18] , the logged concentration at 2 h turned out to be 0.0208 ng/mL

---

Reported half-life is given for each of the following compounds.
Test: TD Phase (Groups 1 and 3): plasma and ocular tissue concentrations and pharmacokinetics of Compound 18 and its metabolite Compound 4 after once daily ocular instillation of Compound 18 nanosuspension for 7 days
Type: in vivo, New Zealand white rabbits
Settings: male, New Zealand white, rabbit, topical or ocular, 0.8 mg/kg/day; sclera/choroid, Day 7, from mean concentrations
Write the answer as a number in h, unit excluded.

So, CCCc1nn(C)c2c(=O)[nH]c(-c3cc(S(=O)(=O)N4CC(CCCO[N+](=O)[O-])C4)ccc3OCC)nc12 ? Its half-life was 1.76

Entry CCCc1nn(C)c2c(=O)[nH]c(-c3cc(S(=O)(=O)N4CC(CCCO)C4)ccc3OCC)nc12 — recorded half-life = 1.74
